Provenance of the data: patent US5674879A

molecular target: smooth muscle angiotensin II receptor; assay: Assay A: Angiotensin II Binding Activity (displacement of 125I-angiotensin II, rat uterine membrane preparation); conditions: 50% displacement of specifically bound 125I-AII, rat uterine membranes, 25° C., 60 min, pH 7.5
assay_readout: IC50 (nM)

> print(dat)
                                   compound  units.of.measure  numeric.result
1  CCCCc1nc(CCCC)n2c1C(=O)CCC2c1ccc(-c2ccccc2-c2nn[nH]n2)cc1 (stereo not shown)                nM              60
2  CCCCc1ncc2n1C(c1ccc(-c3ccccc3-c3nnn[nH]3)cc1)CC=C2CC(=O)OC(C)(C)C (stereo not shown)                nM              41
3  CCCCc1ncc2n1C(c1ccc(-c3ccccc3-c3nnn[nH]3)cc1)CC=C2CC(=O)O (stereo not shown)                nM             200
4  CCCCc1nc(CCCC)n2c1C=CCC2c1ccc(-c2ccccc2-c2nnn[nH]2)cc1 (stereo not shown)                nM             190
5  CCCCc1ncc2n1C(c1ccc(-c3ccccc3-c3nnn[nH]3)cc1)CCC2=CC(=O)O (stereo not shown)                nM             440
6  CCCCc1ncc2n1C(c1ccc(-c3ccccc3-c3nnn[nH]3)cc1)CC=C2 (stereo not shown)                nM             120
7  CCCCc1nc(CCCC)n2c1C(O)CCC2c1ccc(-c2ccccc2-c2nnn[nH]2)cc1 (stereo not shown)                nM              51
